- assayed.target: human mature TGFβ2 (PeproTech) (Homo sapiens, UniProt P61812)
- Sequence (P61812 303-414): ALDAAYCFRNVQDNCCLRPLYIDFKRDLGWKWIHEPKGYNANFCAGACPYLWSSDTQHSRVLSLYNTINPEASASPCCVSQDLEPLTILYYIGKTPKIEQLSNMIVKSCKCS
- run.description: cell-based or functional assay
test.readout: TGFβ inhibition by HEK-Blue cells (IC50: nM), TGFb2; Blocking: Incomplete

{"columns": ["binder", "experimental.result"],
 "data": [
  ["h4A11.v7.3 (antibody, V domains shown, as the VH of m12 (h4A11.v7); numbers count on: Kabat numbering of the heavy chain; as the VL of m12 (h4A11.v7); human IgG1; also called v7.3_S19R, S79Y, K81Q; source: Expi293F, transient, purified (Protein A, SEC)) VH: EQQLQESGPGLVKPSETLRLTCTVTGFSLSSYTVNWVRQPAGKGLEWIGYISYGGSAYYASWANGRFTISKDSSKNQVYLQLSSVTAADTAVYFCARHMQVGGAPTGSMAAFDPWGPGTLVTVSS VL: EAVLTQSPGTLSLSPGERATLSCQSSQSVYNNNYLSWFQQKPGQPPRLLIYGASTLTSGVPDRFSGSGSGTDFTLTISRLEPEDFAVYYCAGGYSGSSDKYAFGGGTKVEIK", "> 667 nM"],
  ["h4A11.v7.1 (antibody, V domains shown, as the VH of m12 (h4A11.v7); numbers count on: Kabat numbering of the heavy chain; as the VL of m12 (h4A11.v7); human IgG1; also called v7.1_S19R, S79Y; source: Expi293F, transient, purified (Protein A, SEC)) VH: EQQLQESGPGLVKPSETLRLTCTVTGFSLSSYTVNWVRQPAGKGLEWIGYISYGGSAYYASWANGRFTISKDSSKNQVYLKLSSVTAADTAVYFCARHMQVGGAPTGSMAAFDPWGPGTLVTVSS VL: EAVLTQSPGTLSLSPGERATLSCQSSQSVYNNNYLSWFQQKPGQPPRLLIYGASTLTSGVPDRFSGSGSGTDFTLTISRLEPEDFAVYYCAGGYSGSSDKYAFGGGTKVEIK", "> 667 nM"],
  ["h4A11.v7.5 (antibody, V domains shown, as the VH of m12 (h4A11.v7); numbers count on: Kabat numbering of the heavy chain; as the VL of m12 (h4A11.v7); human IgG1; also called v7.5_S19R, S79W, K81Q; source: Expi293F, transient, purified (Protein A, SEC)) VH: EQQLQESGPGLVKPSETLRLTCTVTGFSLSSYTVNWVRQPAGKGLEWIGYISYGGSAYYASWANGRFTISKDSSKNQVWLQLSSVTAADTAVYFCARHMQVGGAPTGSMAAFDPWGPGTLVTVSS VL: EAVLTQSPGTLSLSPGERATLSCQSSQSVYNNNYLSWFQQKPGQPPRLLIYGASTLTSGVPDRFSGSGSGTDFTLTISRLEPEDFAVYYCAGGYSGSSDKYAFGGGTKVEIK", "> 667 nM"]
]}
